The following compounds are shown together with reported EC50 values.
- testTarget: EP4 Receptor (Oryctolagus cuniculus, UniProt Q28691)
- Sequence (Q28691 whole entry): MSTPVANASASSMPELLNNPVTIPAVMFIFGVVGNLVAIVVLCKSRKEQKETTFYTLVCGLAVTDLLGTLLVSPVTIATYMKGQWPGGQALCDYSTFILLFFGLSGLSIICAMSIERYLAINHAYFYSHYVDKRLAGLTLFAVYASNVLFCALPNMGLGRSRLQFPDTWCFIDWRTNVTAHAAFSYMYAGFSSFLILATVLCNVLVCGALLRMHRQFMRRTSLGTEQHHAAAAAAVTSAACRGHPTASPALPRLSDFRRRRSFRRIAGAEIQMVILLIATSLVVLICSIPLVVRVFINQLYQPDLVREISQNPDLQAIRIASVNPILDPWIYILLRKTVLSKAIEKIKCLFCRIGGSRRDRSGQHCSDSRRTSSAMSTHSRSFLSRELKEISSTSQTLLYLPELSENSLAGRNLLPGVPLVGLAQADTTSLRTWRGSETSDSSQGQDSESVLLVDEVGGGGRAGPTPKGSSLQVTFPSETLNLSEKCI
- testName: Magnus experiment using rabbit saphenous vein (relaxation of 40 mM KCl contraction)
- Format: cell-based
Please answer using a numeric value trailed by its unit.

Record excerpt, results attached:
1. O=C(O)C=Cc1cccc2c1OC1CC(O)C(C=CC(O)CC3CCCCC3)C21 (stereo not shown) [Compound 3]    6 nM
2. O=C(O)CCc1cccc2c1O[C@H]1C[C@@H](O)[C@H](/C=C/[C@@H](O)CC3CCCCC3)[C@@H]21 [Compound 1]    6 nM
3. O=C(O)CCc1cccc2c1OC1CC(O)C(C=CC(O)C(F)(F)C3CCCCC3)C21 (stereo not shown) [Compound 7]    2 nM

(Q) Quick one: give measured EC50 for CC(C)(Cc1ccccc1)C(O)C=CC1C(O)CC2Oc3c(CCC(=O)O)cccc3C21 (stereo not shown) [Compound 4]
(A) 7 nM

Origin of values: patent US20030083381A1
